system: 17F1 (fetal-I hepatoblastoma organoid with intermediate liver markers); assay: area under the viability dose-response curve (AUC) (AUC (arbitrary units, max 500 = no viability loss)); higher = less sensitive (higher viability); conditions: exposure time: 120 h; concentration range: 0.1 nM - 10 µM, 6 doses
Cut-off 400 on area under the viability dose-response curve: below means y, at or above means n.

{"Compound": "CCOc1cc2ncc(C#N)c(Nc3ccc(OCc4ccccn4)c(Cl)c3)c2cc1NC(=O)/C=C/CN(C)C [Neratinib]", "Label Class": "n"}
{"Compound": "CS(=O)(=O)OCCCCOS(C)(=O)=O [Busulfan]", "Label Class": "n"}
{"Compound": "C[C@]12C=CC(=O)C=C1CC[C@@H]1[C@@H]2[C@@H](O)C[C@@]2(C)[C@H]1CC[C@]2(O)C(=O)CO [Prednisolone]", "Label Class": "n"}
{"Compound": "Cc1cccc(-c2nn3c(c2-c2ccnc4ccc(C(N)=O)cc24)CCC3)n1 [Galunisertib]", "Label Class": "n"}
{"Compound": "CNC(=O)CN1CCC(Oc2cc3c(Nc4cccc(Cl)c4F)ncnc3cc2OC)CC1 [Sapitinib]", "Label Class": "n"}
{"Compound": "COc1ccc(-c2nc(N3CCOCC3)c3sc(CN(C)c4ncc(C(=O)NO)cn4)cc3n2)cn1 [Fimepinostat]", "Label Class": "y"}
{"Compound": "CN(Cc1cnc2nc(N)nc(N)c2n1)c1ccc(C(=O)N[C@@H](CCC(=O)O)C(=O)O)cc1 [Methotrexate]", "Label Class": "y"}
{"Compound": "C[C@]12CCCN1CC1=NNC(=O)c3cc(F)cc4[nH]c2c1c34 [Pamiparib]", "Label Class": "n"}
{"Compound": "CO[C@@H](C)Cn1c(=O)n(C)c2cnc3ccc(-c4cncc(C(C)(C)O)c4)cc3c21 [Samotolisib]", "Label Class": "n"}
{"Compound": "C[C@@H]1COCCN1c1cc(=O)n2c(n1)N(Cc1cncc(Cl)c1)[C@H](C(F)(F)F)CC2 [SAR405]", "Label Class": "n"}
{"Compound": "COCCOc1cnc2ccn([C@H](C)c3nnc4c(F)cc(-c5cnn(C)c5)cn34)c(=O)c2c1 [AMG 337]", "Label Class": "n"}
{"Compound": "CC(C)C[C@H](NC(=O)[C@H](Cc1ccccc1)NC(=O)c1cnccn1)B(O)O [Bortezomib]", "Label Class": "y"}
{"Compound": "CO[C@H]1C[C@@H]2CC[C@@H](C)[C@@](O)(O2)C(=O)C(=O)N2CCCC[C@H]2C(=O)O[C@H]([C@H](C)C[C@@H]2CC[C@@H](O)[C@H](OC)C2)CC(=O)[C@H](C)/C=C(\\C)[C@@H](O)[C@@H](OC)C(=O)[C@H](C)C[C@H](C)/C=C/C=C/C=C/1C [Sirolimus]", "Label Class": "n"}
{"Compound": "CC(=O)c1c(C)c2cnc(Nc3ccc(N4CCNCC4)cn3)nc2n(C2CCCC2)c1=O [Palbociclib]", "Label Class": "n"}

Measured values drawn from the supplement of paper PMC11579375 for this set.
